B1: library; a variant is named by its letters at N, in order (parent)
chain: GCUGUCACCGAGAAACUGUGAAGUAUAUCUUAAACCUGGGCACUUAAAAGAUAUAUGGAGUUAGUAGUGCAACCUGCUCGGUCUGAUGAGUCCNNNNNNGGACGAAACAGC

- Variants of: B1
- Assay summary: FACS-Seq fitted mean relative fluorescence mCherry/BFP without ligand (log10 relative fluorescence); HEK293T; ligand: cyclic di-GMP (c-di-GMP-II aptamer); higher = higher reporter protein expression
- Conditions: ligand present: no
I would appreciate it if you labelled entries criterion met when FACS-Seq fitted mean (log10) is -0.5 or higher, otherwise criterion not met.

Past entries and their recorded results:
1. GCUGUCACCGAGAAACUGUGAAGUAUAUCUUAAACCUGGGCACUUAAAAGAUAUAUGGAGUUAGUAGUGCAACCUGCUCGGUCUGAUGAGUCCAAAGACGGACGAAACAGC [AAAGAC] | criterion met
2. GCUGUCACCGAGAAACUGUGAAGUAUAUCUUAAACCUGGGCACUUAAAAGAUAUAUGGAGUUAGUAGUGCAACCUGCUCGGUCUGAUGAGUCCCAGAUAGGACGAAACAGC [CAGAUA] | criterion not met
3. GCUGUCACCGAGAAACUGUGAAGUAUAUCUUAAACCUGGGCACUUAAAAGAUAUAUGGAGUUAGUAGUGCAACCUGCUCGGUCUGAUGAGUCCUUGACAGGACGAAACAGC [UUGACA] | criterion not met
4. GCUGUCACCGAGAAACUGUGAAGUAUAUCUUAAACCUGGGCACUUAAAAGAUAUAUGGAGUUAGUAGUGCAACCUGCUCGGUCUGAUGAGUCCUGAGUCGGACGAAACAGC [UGAGUC] | criterion met
5. GCUGUCACCGAGAAACUGUGAAGUAUAUCUUAAACCUGGGCACUUAAAAGAUAUAUGGAGUUAGUAGUGCAACCUGCUCGGUCUGAUGAGUCCAGCAUGGGACGAAACAGC [AGCAUG] | criterion met

# ---- query variant ----
Hi, just wondering whether GCUGUCACCGAGAAACUGUGAAGUAUAUCUUAAACCUGGGCACUUAAAAGAUAUAUGGAGUUAGUAGUGCAACCUGCUCGGUCUGAUGAGUCCGCCCUAGGACGAAACAGC [GCCCUA] shows FACS-Seq fitted mean (log10) of -0.5 or higher.
criterion met
